Cited source for all entries: patent US8361968B2

Hi there, I'd appreciate the recorded Specific Activity (intracellular Ca ion level-increasing activity) for every entry that follows.
- SUBJECT OF TEST: hOT7T175 (Homo sapiens, UniProt Q969F8, L364H)
- Sequence (Q969F8 whole entry L364H): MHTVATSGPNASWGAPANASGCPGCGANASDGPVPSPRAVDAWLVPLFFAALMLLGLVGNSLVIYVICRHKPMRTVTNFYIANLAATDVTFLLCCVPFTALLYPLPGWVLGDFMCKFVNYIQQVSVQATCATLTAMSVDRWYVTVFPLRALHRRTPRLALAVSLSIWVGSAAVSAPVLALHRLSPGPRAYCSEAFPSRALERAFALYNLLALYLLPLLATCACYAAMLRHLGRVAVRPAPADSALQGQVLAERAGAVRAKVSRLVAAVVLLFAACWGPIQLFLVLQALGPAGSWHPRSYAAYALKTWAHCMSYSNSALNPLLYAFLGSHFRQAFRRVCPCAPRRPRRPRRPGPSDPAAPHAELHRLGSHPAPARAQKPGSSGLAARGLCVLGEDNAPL
- PROTOCOL NOTES: Intracellular Ca ion level-increasing activity using FLIPR in hOT7T175/CHO
- Format: cell-based
- Parameters: expressed in transfected cells; host or cells: CHO/dhfr- cells, obtained from ATCC
- ASSAY CONDITIONS: relative, Metastin (1-54) = 1
Numbered stars: 1 amine (or outer) side, 2 acyl side, 3 side chain; on linkers, the order of the positions; unused ones are H or OH. Square brackets hold non-standard residues; d marks the D form. Peptide text beside a SMILES is read from it. X11 = O=C(CNC(=S)[C@H](Cc1ccccc1)N[*:1])[*:2]; Arg(Me) = CNC(=N)NCCC[C@H](N)C(=O)O; azaGly = NNC(=O)O
Answers are plain numbers.

I would be grateful if you could provide Specific Activity (intracellular Ca ion level-increasing activity) for each of the following entries.
1. CNC(=N)NCCC[C@H](NC(=O)[C@H](CC(C)C)NC(=O)NNC(=O)[C@H](Cc1ccccc1)NC(=O)[C@H](CO)NC(=O)[C@H](CC(N)=O)NC(=O)[C@H](Cc1c[nH]c2ccccc12)NC(=O)[C@H](N)Cc1ccc(O)cc1)C(=O)N[C@@H](Cc1ccccc1)C(N)=O [Compound No. 222] (H-[dY]WNSF[azaGly]L[Arg(Me)]F-NH2)
2. CC(C)C[C@H](NC(=O)CNC(=S)[C@H](Cc1ccccc1)NC(=O)[C@H](CO)NC(=O)[C@H](CC(N)=O)NC(=O)[C@H](Cc1c[nH]c2ccccc12)NC(=O)[C@H](CC(N)=O)NC(=O)[C@@H](N)Cc1ccc(O)cc1)C(=O)N[C@@H](CCCNC(=N)N)C(=O)N[C@@H](Cc1ccccc1)C(N)=O [Compound No. 166] (H-YNWNS[X11]LRF-NH2)
3. CNC(=N)NCCC[C@H](NC(=O)[C@H](CC(C)C)NC(=O)CNC(=O)[C@H](Cc1ccccc1)NC(=O)[C@H](CO)NC(=O)[C@H](CC(N)=O)NC(=O)[C@H](Cc1c[nH]c2ccccc12)NC(=O)[C@H](N)Cc1ccc(O)cc1)C(=O)N[C@@H](Cc1ccccc1)C(N)=O [Compound No. 217] (H-[dY]WNSFGL[Arg(Me)]F-NH2)
4. CNC(=N)NCCC[C@H](NC(=O)[C@H](CC(C)C)NC(=O)NNC(=O)[C@H](Cc1ccccc1)NC(=O)[C@H](CO)NC(=O)[C@H](CC(N)=O)NC(=O)[C@@H](NC(=O)[C@@H](CC(N)=O)NC(=O)[C@H](N)Cc1ccc(O)cc1)[C@@H](C)O)C(=O)N[C@@H](Cc1ccccc1)C(N)=O [Compound No. 284] (H-[dY][dN]TNSF[azaGly]L[Arg(Me)]F-NH2)
5. CC(C)C[C@H](NC(=O)CNC(=O)[C@H](Cc1ccccc1)NC(=O)[C@H](CC(C)C)NC(=O)[C@H](CC(N)=O)NC(=O)[C@H](Cc1c[nH]c2ccccc12)NC(=O)[C@H](CC(N)=O)NC(=O)[C@@H](N)Cc1ccc(O)cc1)C(=O)N[C@@H](CCCNC(=N)N)C(=O)N[C@@H](Cc1ccccc1)C(N)=O [Compound No. 24] (H-YNWNLFGLRF-NH2)

Response:
[5, 5, 20, 1, 1]

I would be grateful if you could provide Specific Activity (intracellular Ca ion level-increasing activity) for each of the following entries.
1. CCCNC(=N)NCCC[C@H](NC(=O)[C@H](CC(C)C)NC(=O)CNC(=O)[C@H](Cc1ccccc1)NC(=O)[C@H](CO)NC(=O)[C@H](CC(N)=O)NC(=O)[C@H](Cc1c[nH]c2ccccc12)NC(=O)[C@H](CC(N)=O)NC(=O)[C@H](N)Cc1ccc(O)cc1)C(=O)N[C@@H](Cc1ccccc1)C(N)=O [Compound No. 193]
2. CCNC(=N)NCCC[C@H](NC(=O)[C@H](CC(C)C)NC(=O)CNC(=O)[C@H](Cc1ccccc1)NC(=O)[C@H](CO)NC(=O)[C@H](CC(N)=O)NC(=O)[C@H](Cc1c[nH]c2ccccc12)NC(=O)[C@H](CC(N)=O)NC(=O)[C@@H](N)Cc1ccc(O)cc1)C(=O)N[C@@H](Cc1ccccc1)C(N)=O [Compound No. 220]
3. CNC(=N)NCCC[C@H](NC(=O)[C@H](CC(C)C)NC(=O)CNC(=O)[C@H](Cc1ccccc1)NC(=O)[C@H](CO)NC(=O)[C@H](CC(N)=O)NC(=O)[C@@H](NC(=O)[C@H](CC(N)=O)NC(=O)[C@H](N)Cc1ccc(O)cc1)C(C)C)C(=O)N[C@@H](Cc1ccccc1)C(N)=O [Compound No. 229] (H-[dY]NVNSFGL[Arg(Me)]F-NH2)
4. CNC(=N)NCCC[C@H](NC(=O)[C@H](CC(C)C)NC(=O)CNC(=O)[C@H](Cc1ccccc1)NC(=O)[C@H](CO)NC(=O)[C@H](C)NC(=O)[C@H](Cc1c[nH]c2ccccc12)NC(=O)[C@H](CC(N)=O)NC(=O)[C@H](N)Cc1ccc(O)cc1)C(=O)N[C@@H](Cc1ccccc1)C(N)=O [Compound No. 210] (H-[dY]NWASFGL[Arg(Me)]F-NH2)

Response:
["001", 5, 1, 1]
